test: small molecules boosting NK-mediated OVCAR3 lysis – imaging, primary NK cells, calcein-AM imaging, primary screen (AID 1508625); settings: OVCAR3 lysis by primary NK cells, at 5 µM;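 further: compound given to NK cells 16 h before adding targets at 1.5 to 1 ratio; reference of the scale not given here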
Please respond with reported corrected activity, negative = more killing for every item in the list.
Answers are plain numbers, in %.

{"compound": "Cc1ccc(Cl)cc1-n1c(CCC(=O)O)ccc1-c1ccccc1", "valueUnits": "%", "reportedMeasurement": 1.25}
{"compound": "O=C(Nc1ccc([N+](=O)[O-])cc1)c1cc2c(=O)n3ccccc3nc2s1", "valueUnits": "%", "reportedMeasurement": -3.21}
{"compound": "COc1ccc2c(c1OC)C(=O)OC2CC(=O)c1ccc(C)cc1 (configuration not stated)", "valueUnits": "%", "reportedMeasurement": -8.12}
{"compound": "COC(=O)c1cc2nc(-c3ccccc3)cc(C)n2n1", "valueUnits": "%", "reportedMeasurement": -2.69}
{"compound": "COCCNC(=O)c1c[nH]c2ccc(S(=O)(=O)Nc3ccc4c(c3)OCCO4)cc2c1=O", "valueUnits": "%", "reportedMeasurement": -5.25}

For each listed entry, give its corrected activity, negative = more killing.
1. O=C1C2C3C=CC(CC3)C2C(=O)N1c1ccccc1[N+](=O)[O-] (configuration not stated)
2. COc1ccc(Cc2nc3c4c5c(sc4ncn3n2)C(C)(C)NC(C)(C)C5)cc1OC

Found:
1: -2.44; 2: -2.36

Hey, can you go through the list below and give me corrected activity, negative = more killing for every item?
1. CC(=O)c1cccc(NC(=O)CSc2ccc(Cl)cc2)c1
2. COc1ccc(Nc2ccncc2[N+](=O)[O-])cc1
3. COc1ccc(OC)c(C2Nc3ccccc3NC3=C2C(=O)CC(C)(C)C3)c1 (configuration not stated)
4. O=C(c1cccc(NS(=O)(=O)Cc2ccccc2)c1)N1CCOCC1

Found:
1: -1.79; 2: -5.75; 3: -5.96; 4: -1.7

// input: 4 compounds below; output: corrected activity, negative = more killing for each
1. O=C(c1oc(=O)c2ccccc2c1-c1ccccc1)N(CCc1ccccc1)Cc1ccccc1
2. COc1ccc(OC)c(CN2CCN(Cc3ccccc3[N+](=O)[O-])CC2)c1
3. O=c1cc(-c2ccc([N+](=O)[O-])cc2)nc2c(-c3ccc(Cl)cc3)c(Cc3ccccc3)[nH]n12
4. CCOC(=O)CC(NCc1ccc(Cl)c([N+](=O)[O-])c1)c1cccs1 (configuration not stated)

Found:
[-5.06, -3.74, -1.76, -7.84]

// input: 5 compounds below; output: corrected activity, negative = more killing for each
1. Cc1ccc(NC(=O)CCNC(=O)Cn2cnc3ccccc3c2=O)c(Br)c1
2. CCCCOc1ccc(C(=O)N2CCN(C(=O)N(C)C)CC2)cc1
3. CCc1ccc(-n2c(C)nc3cc(C(=O)NCc4cccnc4)ccc32)cc1
4. COc1cccc(-c2nnc(-c3ccc([N+](=O)[O-])cc3)o2)c1
5. CC(=O)CSc1nc(-c2cccs2)cc(C(F)(F)F)c1C#N

Found:
1. -0.469
2. -0.23
3. -5.32
4. 1.18
5. -1.56

Dear reader, for each entry below, please note its corrected activity, negative = more killing.
1. Cc1ccc(Cn2c3[n+](c4ccccc42)CC(O)CS3)cc1 (configuration not stated)
2. CCOC(=O)c1ccc(NC(=O)c2cnc3n(c2=O)CCS3)cc1

Found:
1. -3
2. -6.64

Every entry's value here was drawn from PubChem BioAssay AID1508625.
